The measured values listed here are drawn from PubChem BioAssay AID977622.

# Tested on: E. coli WT ribosome GFP fluorescence, mixed culture, 24 h
# Experimental Details: wild-type E. coli growth inhibition versus h38 humanized strain – h38 mutant RFP, wild-type GFP, cherry-pick, dose response (AID 977622)
# Assay Context: E. coli mixed culture, 24 h; measured here: total growth OD600
Records with an inconclusive call do not appear.
Form field: AC50 (one value per entry).
Quantity Name: AC50 (µM)

{"Compound": "CCOC(=O)c1cccc(OS(=O)(=O)Cc2ccccc2)c1", "Quantity Name": "AC50", "Endpoint Unit": "µM", "Inequality Operator": ">", "Value": 100}
{"Compound": "O=C(NCCc1ccc(O)cc1)c1[nH]c(C(F)(F)F)nc1-c1ccccc1", "Quantity Name": "AC50", "Endpoint Unit": "µM", "Inequality Operator": ">", "Value": 100}
{"Compound": "CCN(CC)S(=O)(=O)c1ccc(O)c(C(=O)OCC(=O)NC23CC4CC(CC(C4)C2)C3)c1", "Quantity Name": "AC50", "Endpoint Unit": "µM", "Inequality Operator": ">", "Value": 100}
{"Compound": "Cc1ccc(S(=O)(=O)N2CC[C@H]3[C@H](CO)Nc4ccc(Br)cc4[C@H]32)cc1", "Quantity Name": "AC50", "Endpoint Unit": "µM", "Inequality Operator": "=", "Value": 29.1}
{"Compound": "O=C(COC(=O)C1CC2C=CC1C2)Nc1ccc([N+](=O)[O-])cc1 (centres undefined)", "Quantity Name": "AC50", "Endpoint Unit": "µM", "Inequality Operator": ">", "Value": 100}
{"Compound": "CCCCCCCNC(=O)c1ccc(N2CCC3(CC2)OCCO3)c([N+](=O)[O-])c1", "Quantity Name": "AC50", "Endpoint Unit": "µM", "Inequality Operator": "=", "Value": 40.4}
{"Compound": "CC(C)(C)C1CCC(OCC(O)CN2CCN(c3ccccn3)CC2)CC1 (centres undefined)", "Quantity Name": "AC50", "Endpoint Unit": "µM", "Inequality Operator": "=", "Value": 44.7}
{"Compound": "CCC(C)c1ccccc1NC(=O)c1cccc(-n2cnnn2)c1 (centres undefined)", "Quantity Name": "AC50", "Endpoint Unit": "µM", "Inequality Operator": ">", "Value": 100}
{"Compound": "COC(=O)c1c(NC(=O)CCC(=O)O)sc(Cc2ccccc2)c1C", "Quantity Name": "AC50", "Endpoint Unit": "µM", "Inequality Operator": "=", "Value": 18.8}
{"Compound": "CCOC(=O)C(CC)Sc1cc(C)nc2ccc(OC)cc12 (centres undefined)", "Quantity Name": "AC50", "Endpoint Unit": "µM", "Inequality Operator": ">", "Value": 100}
{"Compound": "CCc1cc2cc(OC)ccc2nc1SCC(=O)Nc1cc(OC)c(OC)cc1C(=O)O", "Quantity Name": "AC50", "Endpoint Unit": "µM", "Inequality Operator": "=", "Value": 36.3}
{"Compound": "O=C1NC(CCc2ccccc2)C(=O)N1Cc1cccc2ccccc12 (centres undefined)", "Quantity Name": "AC50", "Endpoint Unit": "µM", "Inequality Operator": "=", "Value": 51.5}
{"Compound": "CCc1ccc(CN2CCCC(CNS(=O)(=O)c3ccc(OC)cc3)C2)cc1 (centres undefined)", "Quantity Name": "AC50", "Endpoint Unit": "µM", "Inequality Operator": ">", "Value": 100}
{"Compound": "Cc1c(Cc2ccc3c(c2)OCO3)sc(NC(=O)C2CC2)c1C(N)=O", "Quantity Name": "AC50", "Endpoint Unit": "µM", "Inequality Operator": "=", "Value": 34.7}

====

# Test system: E. coli WT ribosome GFP fluorescence, mixed culture, 24 h
# Experimental Details: wild-type E. coli growth inhibition versus h38 humanized strain – h38 mutant RFP, wild-type GFP, cherry-pick, dose response (AID 977622)
# Assay Context: E. coli mixed culture, 24 h; measured here: total growth OD600
Records with an inconclusive call do not appear.
Just a reminder that ties go to no (0): only AC50 strictly below 40 µM counts as yes (1).

{"Compound": "COc1ccc(OC)c(C(=O)COC(=O)c2ccc([N+](=O)[O-])o2)c1", "Qualitative Label": "no (0)"}
{"Compound": "Cc1cc(-c2ccc(C)c(S(=O)(=O)NC(C)Cc3ccco3)c2)on1 (stereo not given)", "Qualitative Label": "no (0)"}
{"Compound": "CN1OC[C@@H]2CN(C(=O)c3ccco3)[C@H](c3ccc(-c4ccc(C#N)cc4)cc3)C[C@@H]21", "Qualitative Label": "no (0)"}
{"Compound": "Cc1nnc2sc(SCC(=O)Nc3ccc(Br)cc3)nn2c1=O", "Qualitative Label": "no (0)"}
{"Compound": "Cc1ccc(C(=O)Nc2cccc3[nH]c(C(F)(F)F)nc23)cc1", "Qualitative Label": "no (0)"}
{"Compound": "COC(=O)c1c(C)oc(C)c1S(=O)(=O)NC(c1ccccc1)c1ccccc1", "Qualitative Label": "yes (1)"}
{"Compound": "O=C(Nc1cccc(Cl)c1)c1ccc(S(=O)(=O)NCC2CCCO2)cc1 (stereo not given)", "Qualitative Label": "no (0)"}
{"Compound": "Cc1ccc(C(=O)c2coc3cc([N+](=O)[O-])c(O)c([N+](=O)[O-])c23)cc1", "Qualitative Label": "yes (1)"}

====

Each entry below carries its reported AC50.
# System: E. coli WT ribosome GFP fluorescence, mixed culture, 24 h
# Experimental Details: wild-type E. coli growth inhibition versus h38 humanized strain – h38 mutant RFP, wild-type GFP, cherry-pick, dose response (AID 977622)
# Assay Context: E. coli mixed culture, 24 h; measured here: total growth OD600
Inconclusive results are not listed.

{"Molecule": "CN(Cc1ccc([N+](=O)[O-])cc1)c1ccccc1", "AC50": "> 100 µM"}
{"Molecule": "CC(C)(CC(=O)O)CC(=O)NCc1c(Cl)cccc1Sc1ccc(Cl)cc1", "AC50": "> 100 µM"}
{"Molecule": "CC(=O)OC1N=C(c2ccccc2Cl)c2cc(Br)ccc2NC1=O (stereo unspecified)", "AC50": "> 100 µM"}
{"Molecule": "COc1ccc2oc(C)c(C(=O)c3ccccc3)c2c1", "AC50": "48.5 µM"}
{"Molecule": "C=CCNc1ccc2c(c1)OC[C@H](CC(C)C)NS2(=O)=O", "AC50": "> 100 µM"}
{"Molecule": "O=C(CCNC(=O)c1ccco1)Nc1cccc(Br)c1", "AC50": "> 100 µM"}
{"Molecule": "O=C(c1cccs1)c1c[nH]cc1-c1ccccc1", "AC50": "> 100 µM"}
{"Molecule": "CCCCNC(=O)C[C@@H]1C[C@@]2(C(=O)OC)CCCCC=C2N(Cc2ccccc2)C1=O", "AC50": "> 100 µM"}
{"Molecule": "NS(=O)(=O)c1cccc(NC(=O)c2cccc(-c3ccc(O)cc3)c2)c1", "AC50": "50.2 µM"}
{"Molecule": "NC(=O)c1ccsc1NC(=O)COC(=O)Cc1ccc(F)cc1", "AC50": "> 100 µM"}
{"Molecule": "NS(=O)(=O)c1cc(C(=O)OCC(=O)Nc2ccccc2[N+](=O)[O-])ccc1Cl", "AC50": "> 100 µM"}
{"Molecule": "CCOc1ccc(N(CC(=O)NC(C(C)C)C(C)C)S(=O)(=O)c2ccc(OC)c(OC)c2)cc1", "AC50": "50.9 µM"}
{"Molecule": "Cc1cccc(S(=O)(=O)Nc2ccc(-c3cn4ccccc4n3)cc2)c1", "AC50": "26.7 µM"}
{"Molecule": "Cc1ccc(C(=O)Nc2ccc(C)c(S(=O)(=O)Nc3ccccc3Cl)c2)s1", "AC50": "43.1 µM"}
{"Molecule": "CS(=O)(=O)N1CC2CCCN2c2ccc(C(F)(F)F)cc21 (stereo unspecified)", "AC50": "> 100 µM"}
{"Molecule": "Cc1cc(C(=O)Nc2cccc3c2O[C@H](CN(C)S(=O)(=O)c2ccc(Cl)cc2)[C@H](C)CN([C@H](C)CO)C3=O)n(C)n1", "AC50": "27.8 µM"}
{"Molecule": "Cc1nc(-c2ccc([N+](=O)[O-])cc2)c(-c2ccccc2)o1", "AC50": "> 100 µM"}
{"Molecule": "O=C(c1cccc2ccccc12)C1CCCN(C(=O)CCc2cnccn2)C1 (stereo unspecified)", "AC50": "> 100 µM"}
{"Molecule": "O=C1OC[C@@H]2CCCN2C(=O)[C@@H](CC(=O)N(CCO)Cc2ccccc2)C/C=C\\C[C@H]1Cc1ccc(F)cc1", "AC50": "> 100 µM"}
{"Molecule": "CCN(CC)CCN(C(=O)c1ccc2c(c1)CCCC2)c1nc2ccc(F)cc2s1", "AC50": "46.3 µM"}
{"Molecule": "Cc1cc(C(=O)NCCC2=CCCCC2)ccc1[N+](=O)[O-]", "AC50": "> 100 µM"}
